- test_summary: Cmax in Sprague-Dawley rat plasma at 20 mg/kg, IP after 0.083 to 24 hrs by LC-MS/MS analysis
- Format: ADME, organism-based
- Design: time lower 0.083 hrs, dose 20 mg/kg, time upper 24 hrs, route ip
measure: Cmax (ng/mL)
Write down the numeric answer in ng/mL and omit the unit.

Returns the measured Cmax for the input compound. Input: Cc1ncsc1-c1ccc([C@H](C)NC(=O)[C@@H]2C[C@@H](O)CN2C(=O)[C@@H](NC(=O)CCCCCCCCN2CCN(S(=O)(=O)c3ccc(NC(=O)NCc4cccnc4)cc3)CC2)C(C)(C)C)cc1
250

---

- system_under_test: von Hippel-Lindau disease tumor suppressor/Nicotinamide phosphoribosyltransferase (Homo sapiens, UniProt P43490+P40337)
- Sequence (P43490 whole entry): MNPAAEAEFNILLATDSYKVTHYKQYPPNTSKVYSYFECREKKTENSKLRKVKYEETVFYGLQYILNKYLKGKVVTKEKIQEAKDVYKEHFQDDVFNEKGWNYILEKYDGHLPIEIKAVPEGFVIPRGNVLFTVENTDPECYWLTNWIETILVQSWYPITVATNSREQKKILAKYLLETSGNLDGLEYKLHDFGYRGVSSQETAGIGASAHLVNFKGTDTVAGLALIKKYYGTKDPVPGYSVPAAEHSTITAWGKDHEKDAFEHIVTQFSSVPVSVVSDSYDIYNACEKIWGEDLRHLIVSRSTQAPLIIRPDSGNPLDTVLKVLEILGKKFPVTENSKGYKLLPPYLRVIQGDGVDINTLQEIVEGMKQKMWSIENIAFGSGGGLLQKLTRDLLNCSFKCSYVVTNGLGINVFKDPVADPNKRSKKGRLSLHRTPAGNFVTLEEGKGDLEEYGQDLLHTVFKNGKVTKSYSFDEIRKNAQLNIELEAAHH
- Sequence (P40337 whole entry): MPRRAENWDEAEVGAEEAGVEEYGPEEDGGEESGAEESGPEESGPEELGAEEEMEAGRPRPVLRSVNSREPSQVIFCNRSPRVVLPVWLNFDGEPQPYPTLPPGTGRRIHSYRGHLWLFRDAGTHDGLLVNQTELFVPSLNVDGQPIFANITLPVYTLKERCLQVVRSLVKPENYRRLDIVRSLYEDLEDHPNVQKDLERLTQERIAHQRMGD
- test_summary: Protac activity at VHL/NAMPT in human A2780 cells assessed as degradation of NAMPT using NAM as substrate preincubated for 5 mins followed by substrate addition measured after 5 mins in presence of ATP by luminesence based microplate reader analysis
- Assay type: cell-based
measure: log10 DC50 (log10 of the value in nM)
Give log10 of DC50, with DC50 taken in nM.

Some molecules with known log10 DC50 results, for comparison:
{"columns": ["molecular_string", "numeric_value"],
 "data": [
  ["Cc1ncsc1-c1ccc([C@H](C)NC(=O)[C@@H]2C[C@@H](O)CN2C(=O)[C@@H](NC(=O)CCCCCCCCCCCN2CCN(S(=O)(=O)c3ccc(NC(=O)NCc4cccnc4)cc3)CC2)C(C)(C)C)cc1", 0.38],
  ["Cc1ncsc1-c1ccc([C@H](C)NC(=O)[C@@H]2C[C@@H](O)CN2C(=O)[C@@H](NC(=O)CCCCCCCCCN2CCN(S(=O)(=O)c3ccc(NC(=O)NCc4cccnc4)cc3)CC2)C(C)(C)C)cc1", 0.18],
  ["Cc1ncsc1-c1ccc([C@H](C)NC(=O)[C@@H]2C[C@@H](O)CN2C(=O)[C@@H](NC(=O)COCCOCCOCCOCCOCCN2CCN(S(=O)(=O)c3ccc(NC(=O)NCc4cccnc4)cc3)CC2)C(C)(C)C)cc1", 1.34]
]}

Returns the measured log10 DC50 for the input molecule. Input: Cc1ncsc1-c1ccc([C@H](C)NC(=O)[C@@H]2C[C@@H](O)CN2C(=O)[C@@H](NC(=O)COCCOCCOCCOCCN2CCN(S(=O)(=O)c3ccc(NC(=O)NCc4cccnc4)cc3)CC2)C(C)(C)C)cc1
1.28

Returns the measured log10 DC50 for the input molecule. Input: Cc1ncsc1-c1ccc([C@H](C)NC(=O)[C@@H]2C[C@@H](O)CN2C(=O)[C@@H](NC(=O)COCCOCCn2cc(CCN3CCN(S(=O)(=O)c4ccc(NC(=O)NCc5cccnc5)cc4)CC3)nn2)C(C)(C)C)cc1
1.70

Returns the measured log10 DC50 for the input molecule. Input: Cc1ncsc1-c1ccc([C@H](C)NC(=O)[C@@H]2C[C@@H](O)CN2C(=O)[C@@H](NC(=O)COCCOCCOCCOCCn2cc(CCN3CCN(S(=O)(=O)c4ccc(NC(=O)NCc5cccnc5)cc4)CC3)nn2)C(C)(C)C)cc1
1.70

Returns the measured log10 DC50 for the input molecule. Input: Cc1ncsc1-c1ccc([C@H](C)NC(=O)[C@@H]2C[C@@H](O)CN2C(=O)[C@@H](NC(=O)COCCOCCOCCOCCOCCn2cc(CCN3CCN(S(=O)(=O)c4ccc(NC(=O)NCc5cccnc5)cc4)CC3)nn2)C(C)(C)C)cc1
1.70

Returns the measured log10 DC50 for the input molecule. Input: Cc1ncsc1-c1ccc([C@H](C)NC(=O)[C@@H]2C[C@@H](O)CN2C(=O)[C@@H](NC(=O)COCCn2cc(CCN3CCN(S(=O)(=O)c4ccc(NC(=O)NCc5cccnc5)cc4)CC3)nn2)C(C)(C)C)cc1
1.70

Returns the measured log10 DC50 for the input molecule. Input: Cc1ncsc1-c1ccc([C@H](C)NC(=O)[C@@H]2C[C@@H](O)CN2C(=O)[C@@H](NC(=O)COCCOCCOCCn2cc(CCN3CCN(S(=O)(=O)c4ccc(NC(=O)NCc5cccnc5)cc4)CC3)nn2)C(C)(C)C)cc1
1.70

Returns the measured log10 DC50 for the input molecule. Input: Cc1ncsc1-c1ccc([C@H](C)NC(=O)[C@@H]2C[C@@H](O)CN2C(=O)[C@@H](NC(=O)COCCOCCOCCN2CCN(S(=O)(=O)c3ccc(NC(=O)NCc4cccnc4)cc3)CC2)C(C)(C)C)cc1
1.97

---

- test_summary: Half life in mouse plasma at 5 mg/kg, iv by LC-MS/MS analysis
- Type: ADME, organism-based
measure: half-life (h)
Write down the numeric answer in h and omit the unit.

Returns the measured half-life for the input molecule. Input: Cc1ncsc1-c1ccc([C@H](C)NC(=O)[C@@H]2C[C@@H](O)CN2C(=O)[C@@H](NC(=O)CCCCCCCCN2CCN(S(=O)(=O)c3ccc(NC(=O)NCc4cccnc4)cc3)CC2)C(C)(C)C)cc1
3.72

---

- test_summary: Half life in Sprague-Dawley rat plasma at 5 mg/kg, iv by LC-MS/MS analysis
- Assay type: ADME, organism-based
measure: half-life (min)
Write down the numeric answer in min and omit the unit.

Returns the measured half-life for the input molecule. Input: Cc1ncsc1-c1ccc([C@H](C)NC(=O)[C@@H]2C[C@@H](O)CN2C(=O)[C@@H](NC(=O)CCCCCCCCN2CCN(S(=O)(=O)c3ccc(NC(=O)NCc4cccnc4)cc3)CC2)C(C)(C)C)cc1
392

---

pIC50, Nicotinamide phosphoribosyltransferase (Homo sapiens): measured values
Kindly note that pIC50 refers to -log10 of the concentration in mol/L and answer with the value alone.

Some compounds with known pIC50 results, for comparison:
{"columns": ["molecular_string", "system_under_test", "pIC50"],
 "data": [
  ["Cc1ncsc1-c1ccc([C@H](C)NC(=O)[C@@H]2C[C@@H](O)CN2C(=O)[C@@H](NC(=O)CCCCCCCCCN2CCN(S(=O)(=O)c3ccc(NC(=O)NCc4cccnc4)cc3)CC2)C(C)(C)C)cc1", "Nicotinamide phosphoribosyltransferase (Homo sapiens)", 6.72],
  ["Cc1ncsc1-c1ccc([C@H](C)NC(=O)[C@@H]2C[C@@H](O)CN2C(=O)[C@@H](NC(=O)CCCCCCCN2CCN(S(=O)(=O)c3ccc(NC(=O)NCc4cccnc4)cc3)CC2)C(C)(C)C)cc1", "Nicotinamide phosphoribosyltransferase (Homo sapiens)", 7.00],
  ["Cc1ncsc1-c1ccc([C@H](C)NC(=O)[C@@H]2C[C@@H](O)CN2C(=O)[C@@H](NC(=O)CCCCCCN2CCN(S(=O)(=O)c3ccc(NC(=O)NCc4cccnc4)cc3)CC2)C(C)(C)C)cc1", "Nicotinamide phosphoribosyltransferase (Homo sapiens)", 6.92]
]}

What measured pIC50 is associated with Cc1ncsc1-c1ccc([C@H](C)NC(=O)[C@@H]2C[C@@H](O)CN2C(=O)[C@@H](NC(=O)CCCCCCCCCCN2CCN(S(=O)(=O)c3ccc(NC(=O)NCc4cccnc4)cc3)CC2)C(C)(C)C)cc1 on Nicotinamide phosphoribosyltransferase (Homo sapiens)?
6.64

What measured pIC50 is associated with Cc1ncsc1-c1ccc([C@H](C)NC(=O)[C@@H]2C[C@@H](O)CN2C(=O)[C@@H](NC(=O)COCCOCCOCCOCCOCCn2cc(CCN3CCN(S(=O)(=O)c4ccc(NC(=O)NCc5cccnc5)cc4)CC3)nn2)C(C)(C)C)cc1 on Nicotinamide phosphoribosyltransferase (Homo sapiens)?
6.01

What measured pIC50 is associated with Cc1ncsc1-c1ccc([C@H](C)NC(=O)[C@@H]2C[C@@H](O)CN2C(=O)[C@@H](NC(=O)COCCOCCOCCn2cc(CCN3CCN(S(=O)(=O)c4ccc(NC(=O)NCc5cccnc5)cc4)CC3)nn2)C(C)(C)C)cc1 on Nicotinamide phosphoribosyltransferase (Homo sapiens)?
7.03

---

- system_under_test: von Hippel-Lindau disease tumor suppressor/Nicotinamide phosphoribosyltransferase (Homo sapiens, UniProt P43490+P40337)
- test_summary: Protac activity at VHL/NAMPT in human A2780 cells assessed as degradation of NAMPT using NAM as substrate preincubated for 5 mins followed by substrate addition measured after 5 mins in presence of ATP by luminesence based microplate reader analysis
- Assay type: cell-based
Parameter: DC50. Scope: all listed entries.

Some molecules with known DC50 results, for comparison:
{"columns": ["molecular_string", "result"],
 "data": [
  ["Cc1ncsc1-c1ccc([C@H](C)NC(=O)[C@@H]2C[C@@H](O)CN2C(=O)[C@@H](NC(=O)CCCCCCN2CCN(S(=O)(=O)c3ccc(NC(=O)NCc4cccnc4)cc3)CC2)C(C)(C)C)cc1", "> 10 µM"],
  ["Cc1ncsc1-c1ccc([C@H](C)NC(=O)[C@@H]2C[C@@H](O)CN2C(=O)[C@@H](NC(=O)CCCCCCCN2CCN(S(=O)(=O)c3ccc(NC(=O)NCc4cccnc4)cc3)CC2)C(C)(C)C)cc1", "> 0.1 µM"],
  ["Cc1ncsc1-c1ccc([C@H](C)NC(=O)[C@@H]2C[C@@H](O)CN2C(=O)[C@@H](NC(=O)COCCN2CCN(S(=O)(=O)c3ccc(NC(=O)NCc4cccnc4)cc3)CC2)C(C)(C)C)cc1", "> 0.1 µM"],
  ["Cc1ncsc1-c1ccc([C@H](C)NC(=O)[C@@H]2C[C@@H](O)CN2C(=O)[C@@H](NC(=O)CCCCCCCCCCN2CCN(S(=O)(=O)c3ccc(NC(=O)NCc4cccnc4)cc3)CC2)C(C)(C)C)cc1", "< 0.0046 µM"],
  ["Cc1ncsc1-c1ccc([C@H](C)NC(=O)[C@@H]2C[C@@H](O)CN2C(=O)[C@@H](NC(=O)CCCCCCCCN2CCN(S(=O)(=O)c3ccc(NC(=O)NCc4cccnc4)cc3)CC2)C(C)(C)C)cc1", "< 0.00017 µM"],
  ["Cc1ncsc1-c1ccc([C@H](C)NC(=O)[C@@H]2C[C@@H](O)CN2C(=O)[C@@H](NC(=O)COCCOCCN2CCN(S(=O)(=O)c3ccc(NC(=O)NCc4cccnc4)cc3)CC2)C(C)(C)C)cc1", "> 0.1 µM"]
]}

--- query ---
Returns the measured DC50 for the input molecule. Input: Cc1ncsc1-c1ccc([C@H](C)NC(=O)[C@H]2C[C@H](O)CN2C(=O)[C@@H](NC(=O)CCCCCCCCN2CCN(S(=O)(=O)c3ccc(NC(=O)NCc4cccnc4)cc3)CC2)C(C)(C)C)cc1
> 10 µM
